Data provenance: patent US9758538B2

Provide the reported pKi of each item.
Target: truncated PI3Kα (p110α/iSH2 p85α), PI3KA_Act (Homo sapiens (Human), UniProt P42336)
Sequence (P42336 whole entry, the tested form may be a part): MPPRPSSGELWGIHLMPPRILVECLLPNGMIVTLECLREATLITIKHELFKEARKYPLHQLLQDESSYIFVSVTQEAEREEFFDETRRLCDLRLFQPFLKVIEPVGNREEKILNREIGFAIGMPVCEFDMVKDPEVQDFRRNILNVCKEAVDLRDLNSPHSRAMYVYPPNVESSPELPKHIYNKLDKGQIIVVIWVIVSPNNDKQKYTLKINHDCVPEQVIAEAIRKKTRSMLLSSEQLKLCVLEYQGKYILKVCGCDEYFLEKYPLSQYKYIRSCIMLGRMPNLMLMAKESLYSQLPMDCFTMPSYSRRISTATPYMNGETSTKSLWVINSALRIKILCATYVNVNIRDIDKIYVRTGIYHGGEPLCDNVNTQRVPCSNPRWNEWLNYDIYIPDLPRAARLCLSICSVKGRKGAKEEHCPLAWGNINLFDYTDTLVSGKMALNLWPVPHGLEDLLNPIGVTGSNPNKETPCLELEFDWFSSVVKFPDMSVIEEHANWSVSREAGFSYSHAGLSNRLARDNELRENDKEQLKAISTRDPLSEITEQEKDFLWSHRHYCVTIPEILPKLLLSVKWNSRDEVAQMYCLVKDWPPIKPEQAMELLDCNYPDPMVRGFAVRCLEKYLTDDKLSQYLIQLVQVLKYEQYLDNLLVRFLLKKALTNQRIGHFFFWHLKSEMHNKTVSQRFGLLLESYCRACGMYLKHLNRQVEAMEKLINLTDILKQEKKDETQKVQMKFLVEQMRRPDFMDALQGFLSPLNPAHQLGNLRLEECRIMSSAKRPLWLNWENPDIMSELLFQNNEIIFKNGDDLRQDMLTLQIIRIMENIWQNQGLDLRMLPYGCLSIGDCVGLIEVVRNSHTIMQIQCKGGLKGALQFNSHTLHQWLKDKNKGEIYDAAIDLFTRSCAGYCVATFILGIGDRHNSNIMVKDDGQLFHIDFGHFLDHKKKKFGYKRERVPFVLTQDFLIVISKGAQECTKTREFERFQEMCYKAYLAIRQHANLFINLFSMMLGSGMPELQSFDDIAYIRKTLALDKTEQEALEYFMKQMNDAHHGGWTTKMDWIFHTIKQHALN
Assay: PI3Kα biochemical kinase assay, fluorescence polarization format (PI3KA_Act)
Details: 0.5 nM p110α/iSH2 p85, 1 mM ATP, 30 μM PIP2, 15-min preincubation; Morrison equation fit; read-out: PI3KA_Act Ki
Protocol: Enzyme Production for Biochemical Assay: p110α-iSH2 p85α Complex (Full Length p110α and p85α iSH2)(“PI3KA Act”) Gene encoding p110α subunit was subcloned into polyhedrine promoter while gene encoding p85α niSH2 domains was subcloned into p10 promoter. […] The enzymatic reactions were conducted in 50 μL volumes in 96-well plates. […] The plate was shaken for 30 minutes and fluorescence polarization values were measured on an LJL Analyst HT plate reader (Molecular Devices, Sunnyvale, Calif.).
Answers are plain numbers, as −log10 of the molar value.

Nc1ncc(-c2cc(N[C@@]3(CO)CCN(CC4CC4)C3)nc(N3CCOCC3)n2)cn1: 8.02

Batch lookup, pKi per entry.
1. CC(=O)N1CC[C@@](CO)(Nc2cc(-c3cnc(N)nc3)nc(N3CCOCC3)n2)C1
2. Nc1ncc(-c2cc(N[C@@]3(CO)CCN(C(=O)c4ncc[nH]4)C3)nc(N3CCOCC3)n2)cn1
3. COCC(=O)N1CCC[C@@](CO)(Nc2nc(N3CCOCC3)nc(-c3cnc(N)nc3)c2F)C1

[out]
8.67
10.59
8.74

Batch lookup, pKi per entry.
1. CC[C@@]1(Nc2cc(-c3cnc(N)nc3)nc(N3CCOCC3)n2)CCN(C(=O)C2(F)CC2)C1
2. CN1CCC(N2CC[C@](CO)(Nc3cc(-c4cnc(N)nc4)nc(N4CCOCC4)n3)C2)C1=O (stereo partly drawn)
3. CC(=O)N1CCC[C@@](CO)(Nc2nc(N3CCOCC3)nc(-c3cnc(N)nc3)c2F)C1

[out]
[9.20, 8.74, 8.78]

###

Provide the reported log10 of Ki of each item.
Biological target: truncated PI3Kα (p110α/iSH2 p85α), PI3KA_Act (Homo sapiens (Human), UniProt P42336)
Experiment: PI3Kα biochemical kinase assay, fluorescence polarization format (PI3KA_Act)
Details: 0.5 nM p110α/iSH2 p85, 1 mM ATP, 30 μM PIP2, 15-min preincubation; Morrison equation fit; read-out: PI3KA_Act Ki
Annotation: log10 of Ki, nM basis.

Batch lookup, log10 of Ki per entry.
1. C[C@H]1COCCN1c1nc(N[C@@]2(CF)CCN(C(=O)OC(C)(C)C)C2)cc(-c2cnc(N)nc2)n1
2. CC(=O)N1CCC[C@](CO)(Nc2nc(N3CCOCC3)nc(-c3cnc(N)nc3)c2F)C1
3. CC(C)(C)OC(=O)N1CCCC(CO)(Nc2cc(-c3cnc(N)nc3)nc(N3CCOCC3)n2)C1 (centres unmarked)
4. Nc1ncc(-c2nc(N3CCOCC3)nc(N[C@@]3(CO)CCCNC3)c2F)cn1
5. Nc1ncc(-c2cc(NC3(CF)CCN(C(=O)OCc4ccccc4)C3)nc(N3CCOCC3)n2)cn1 (centres unmarked)
6. CCC(=O)N1CCC[C@@](CO)(Nc2nc(N3CCOCC3)nc(-c3cnc(N)nc3)c2F)C1
7. Nc1ncc(-c2nc(N3CCOCC3)nc(N[C@@]3(CO)CCCN(C(=O)C4(F)CC4)C3)c2F)cn1
8. COCC(=O)N1CCC[C@](CO)(Nc2nc(N3CCOCC3)nc(-c3cnc(N)nc3)c2F)C1

[out]
1. -1.34
2. -0.07
3. 0.23
4. 0.40
5. -0.31
6. 0.28
7. -0.99
8. -0.10

###

Target: truncated PI3Kα (p110α/iSH2 p85α), PI3KA_Act (Homo sapiens (Human))
Test: PI3Kα biochemical kinase assay, fluorescence polarization format (PI3KA_Act)
Conditions: 0.5 nM p110α/iSH2 p85, 1 mM ATP, 30 μM PIP2, 15-min preincubation; Morrison equation fit; read-out: PI3KA_Act Ki
Description: Enzyme Production for Biochemical Assay: p110α-iSH2 p85α Complex (Full Length p110α and p85α iSH2)(“PI3KA Act”) Gene encoding p110α subunit was subcloned into polyhedrine promoter while gene encoding p85α niSH2 domains was subcloned into p10 promoter. […] The enzymatic reactions were conducted in 50 μL volumes in 96-well plates. […] The plate was shaken for 30 minutes and fluorescence polarization values were measured on an LJL Analyst HT plate reader (Molecular Devices, Sunnyvale, Calif.).
READOUT_NAME: Ki (nM)
Answers are plain numbers, in nM.

Use these answered entries as a reference point.
C[C@H]1COCCN1c1nc(NC2(CO)CN(C(=O)OC(C)(C)C)C2)cc(-c2cnc(N)nc2)n1 [Example 49]: 0.083
C[C@H]1COCCN1c1nc(N[C@@]2(C)CCN(C(=O)OC(C)(C)C)C2)cc(-c2cnc(N)nc2)n1 [Example 19]: 0.158
Nc1ncc(-c2nc(N3CCOCC3)nc(N[C@@]3(CO)CCN(C(=O)NCC(F)F)C3)c2F)cn1 [Example 132]: 0.097
CCOC(=O)N1CC[C@](CO)(Nc2cc(-c3cnc(C)c(F)c3)nc(N3CCOCC3)n2)C1 [Example 129]: 8.29
Nc1ncc(-c2cc(N[C@@]3(CO)CCN(C(=O)NCC(F)F)C3)nc(N3CCOCC3)n2)cn1 [Example 131]: 0.205

Batch lookup, Ki per entry.
1. Cc1ncc(-c2cc(N[C@@]3(CO)CCN(C(=O)OC(C)(C)C)C3)nc(N3CCOCC3)n2)cc1C#N [Example 125]
2. CN(c1cc(-c2cnc(N)nc2)nc(N2CCOCC2)n1)C1(CO)CCN(C(=O)OC(C)(C)C)C1 (single isomer, unassigned) [Example 27]
3. CN1CCCC(N2CC[C@](CO)(Nc3cc(-c4cnc(N)nc4)nc(N4CCOCC4)n3)C2)C1=O (some centres unmarked) [Example 84]
4. Nc1ncc(-c2cc(N[C@@]3(CO)CCN(C(=O)OCC(F)F)C3)nc(N3CCOCC3)n2)cn1 [Example 79]
5. Nc1ncc(-c2nc(N3CCOCC3)nc(N[C@]3(CO)CCCN(C(=O)C4CC4)C3)c2F)cn1 [Example 157]
6. C[C@@]1(Nc2cc(-c3cnc(N)nc3)nc(N3CCOCC3)n2)CCN(S(C)(=O)=O)C1 [Example 12]
7. CC(C)(C)OC(=O)N1CCC(CO)(Oc2cc(-c3cnc(N)nc3)nc(N3CCOCC3)n2)C1 (single isomer, unassigned) [Example 9]
8. C[C@H]1COCCN1c1nc(NC2(CO)CNC2)cc(-c2cnc(N)nc2)n1 [Example 54]

[out]
118
0.717
0.445
0.021
1.87
1.29
0.492
2.67

[in] For COC(=O)N1CC[C@](CO)(Nc2cc(-c3cnc(N)nc3C)nc(N3CCOCC3)n2)C1 [Example 59] , what is its reported Ki?
[out] 0.18

###

Provide the reported Ki of each item.
Target: truncated PI3Kα (p110α/iSH2 p85α), PI3KA_Act (Homo sapiens (Human))
Experiment: PI3Kα biochemical kinase assay, fluorescence polarization format (PI3KA_Act)
Conditions: 0.5 nM p110α/iSH2 p85, 1 mM ATP, 30 μM PIP2, 15-min preincubation; Morrison equation fit; read-out: PI3KA_Act Ki
One number for each entry, in nM.

Use these answered entries as a reference point.
Nc1ncc(-c2nc(N3CCOCC3)nc(N[C@@]3(CO)CCCN(C(=O)C4CC4)C3)c2F)cn1 [Example 156]: 0.454
Nc1ncc(-c2nc(N3CCOCC3)nc(N[C@]3(CO)CCCNC3)c2F)cn1 [Example 144]: 13.9
CS(=O)(=O)N1CC[C@](CO)(Nc2cc(-c3cnc(N)nc3)nc(N3CCOCC3)n2)C1 [Example 33]: 0.3
C[C@H]1COCCN1c1nc(N[C@@]2(CO)CCN(C(=O)C3COC3)C2)cc(-c2cnc(N)nc2)n1 [Example 104]: 0.674

Batch lookup, Ki per entry.
1. Nc1ncc(-c2nc(N3CCOCC3)nc(N[C@]3(CO)CCCN(C(=O)C4(F)CC4)C3)c2F)cn1 (single isomer, unassigned) [Example 158]
2. Nc1ncc(-c2cc(N[C@@]3(CO)CCNC3)nc(N3CCOCC3)n2)cn1 [Example 29]
3. CC[C@@]1(Nc2cc(-c3cnc(N)nc3)nc(N3CCOCC3)n2)CCN(C(=O)OC(C)(C)C)C1 [Example 37]
4. CC(C)[C@@H](N)C(=O)N1CC[C@](CO)(Nc2cc(-c3cnc(N)nc3)nc(N3CCOCC3)n2)C1 [Example 50]
5. CCOC(=O)N1CC[C@](CO)(Nc2cc(-c3cnc(C)nc3)nc(N3CCOCC3)n2)C1 [Example 130]

[out]
0.627
5.88
0.725
0.137
0.83
